Biological target: human orexin-2 receptor (OX2R) (Homo sapiens, UniProt O43614)
Sequence (O43614 1-444): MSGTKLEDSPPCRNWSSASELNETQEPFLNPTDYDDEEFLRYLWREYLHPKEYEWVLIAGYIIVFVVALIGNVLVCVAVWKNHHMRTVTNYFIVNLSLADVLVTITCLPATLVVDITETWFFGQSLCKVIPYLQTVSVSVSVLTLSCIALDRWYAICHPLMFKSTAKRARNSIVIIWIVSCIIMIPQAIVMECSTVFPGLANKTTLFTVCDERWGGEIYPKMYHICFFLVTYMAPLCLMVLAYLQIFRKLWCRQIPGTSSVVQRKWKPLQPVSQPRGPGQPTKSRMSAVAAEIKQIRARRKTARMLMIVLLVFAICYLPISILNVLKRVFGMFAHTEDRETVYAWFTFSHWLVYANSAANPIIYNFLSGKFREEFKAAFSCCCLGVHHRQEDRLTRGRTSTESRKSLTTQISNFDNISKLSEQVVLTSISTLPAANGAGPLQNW
Assay: Human OX2R IP1 assay
Conditions: T-Rex CHO cells stably overexpressing human OX2R; IP1 accumulation, 1 hr at 37 degrees C
Method: T-Rex CHO cells stably overexpressing the human orexin-2 receptor (OX2R) were induced overnight with 1 μg/mL of doxycycline in a T225 flask. 24 hours post induction, cells were lifted with accutase and plated into a 384-well proxy plate at 30,000 cells/well. […] The plates were allowed to incubate for 1 hour at room temperature and were then read in the EnVision® multimode plate reader, measuring inositol phosphate levels. […]
The following compounds are listed with their measured EC50 values.

Previously resolved entries follow.
- COMPOUND: "CS(=O)(=O)N[C@H]1CCN(c2ncccc2C(F)(F)F)C[C@H]1CO[C@H]1CC[C@@H](c2ccccc2)CC1 [Compound 28]"
  EC50: "< 100 nM"
- COMPOUND: "CS(=O)(=O)N[C@H]1CCN(c2ccccn2)C[C@H]1CO[C@H]1CC[C@@H](c2ccccc2F)CC1 [Compound 5]"
  EC50: "< 100 nM"
- COMPOUND: "C[C@@H](c1ccccc1)N1CC[C@H](NS(C)(=O)=O)C(COC2CCC(c3ccccc3)CC2)C1 (stereo partly shown) [Compound 37]"
  EC50: "> 1000 nM"

EC50 in this record for CS(=O)(=O)N[C@H]1CCN(c2ccccn2)C[C@H]1CO[C@H]1CC[C@@H](c2cccnn2)CC1 [Compound 14] : > 1000 nM

Recorded result, CS(=O)(=O)N[C@H]1CCN(c2ncccc2F)C[C@H]1CO[C@H]1CC[C@@H](c2ccccc2)CC1 [Compound 26] , EC50: < 100 nM

Recorded EC50 (compound C[C@H](c1ccccc1)N1CC[C@H](NS(C)(=O)=O)C(COC2CCC(c3ccccc3)CC2)C1 (stereo partly shown) [Compound 38] ): > 1000 nM

EC50 measured on COC(=O)N1CCC[C@H](NS(C)(=O)=O)[C@@H]1CO[C@H]1CC[C@@H](c2ccccc2)CC1 [Reference Compound A, reference compound] = < 100 nM

###

// EC50 lookup, one value per entry
Biological target: human orexin-2 receptor (OX2R) (Homo sapiens, UniProt O43614)
Sequence (O43614 1-444): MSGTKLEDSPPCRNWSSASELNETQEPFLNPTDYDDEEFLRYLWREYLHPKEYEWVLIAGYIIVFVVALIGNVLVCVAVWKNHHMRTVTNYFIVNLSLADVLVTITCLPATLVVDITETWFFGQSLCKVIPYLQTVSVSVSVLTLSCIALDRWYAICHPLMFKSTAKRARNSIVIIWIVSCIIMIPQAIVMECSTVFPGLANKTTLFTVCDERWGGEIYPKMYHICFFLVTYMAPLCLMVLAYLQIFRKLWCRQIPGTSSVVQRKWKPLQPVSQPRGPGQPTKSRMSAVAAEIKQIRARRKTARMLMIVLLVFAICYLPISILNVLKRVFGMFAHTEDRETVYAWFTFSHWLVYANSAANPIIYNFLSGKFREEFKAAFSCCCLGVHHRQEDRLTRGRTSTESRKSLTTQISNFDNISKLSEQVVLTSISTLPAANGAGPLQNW
Assay: Human OX2R IP1 assay
Conditions: T-Rex CHO cells stably overexpressing human OX2R; IP1 accumulation, 1 hr at 37 degrees C

- SMILES RECORD: "Cc1ccccc1[C@H]1CC[C@@H](OC[C@@H]2CN(c3ccccn3)CC[C@@H]2NS(C)(=O)=O)CC1"
  EC50: "< 100 nM"
- SMILES RECORD: "CS(=O)(=O)N[C@H]1CCN(Cc2ccccn2)C[C@H]1CO[C@H]1CC[C@@H](c2ccccc2)CC1"
  EC50: "> 1000 nM"
- SMILES RECORD: "CS(=O)(=O)N[C@H]1CCN(c2ccccn2)C[C@H]1CO[C@H]1CC[C@@H](c2cccnc2)CC1"
  EC50: "< 100 nM"
- SMILES RECORD: "CS(=O)(=O)N[C@H]1CCN(c2ccccn2)C[C@H]1CO[C@H]1CC[C@@H](c2cccc(C#N)c2)CC1"
  EC50: "< 100 nM"

Lab note: `CS(=O)(=O)N[C@H]1CCN(Cc2ccccc2)C[C@H]1CO[C@H]1CC[C@@H](c2ccccc2)CC1` gave EC50 of > 1000 nM

# EC50 (compound: `CS(=O)(=O)N[C@H]1CCN(c2cnccn2)C[C@H]1CO[C@H]1CC[C@@H](c2ccccc2)CC1` ) is < 100 nM

Lookup result for `CS(=O)(=O)N[C@H]1CCN(c2ccccn2)C[C@H]1CO[C@H]1CC[C@@H](c2cccc(F)c2)CC1` ; measured EC50: < 100 nM

Item: `Cc1cccc([C@H]2CC[C@@H](OC[C@@H]3CN(c4ccccn4)CC[C@@H]3NS(C)(=O)=O)CC2)c1` | EC50: < 100 nM

Consider `CS(=O)(=O)N[C@H]1CCN(c2ccccn2)C[C@H]1CO[C@H]1CC[C@@H](c2ncccn2)CC1` . Its measured EC50 is > 1000 nM

From: patent US12441710B2
